Below: a set of entries, each annotated with reported MAC1+ percent, differentiation.
- procedureSummary: myeloid differentiation promoters in THP1 cells, SAR follow-up, cell-based, MAC1 flow cytometry, set 1 (AID 743179)
- assaySetup: THP1 MAC1+ differentiation, flow cytometry, 4 days; at 10 µM (top of the series)
Your answer is read as %, so omit the unit and give the number.

Observe how each entry below is paired with its result.
CC(=O)NCCC(=O)N[C@@H]1CCCc2ccccc21: 2
O=C(CCNC(=O)c1ccc(Cl)cc1)N[C@@H]1CCc2ccccc21: 21

Summary for this compound, CC(NC(=O)CCNC(=O)c1ccc(Cl)cc1)c1ccc(F)cc1 (stereo not drawn) : MAC1+ percent, differentiation is 6

Summary for this compound, O=C(CCNC(=O)c1ccc(Cl)cc1)N[C@H]1CCCc2ccccc21 : MAC1+ percent, differentiation is 7

Summary for this compound, CC(NC(=O)C1CCCN(C(=O)c2ccc(Cl)cc2)C1)c1ccccc1 (stereo not drawn) : MAC1+ percent, differentiation is 6

====

- procedureSummary: myeloid differentiation promoters in THP1 cells, SAR follow-up, cell-based, MAC1 flow cytometry, set 1 (AID 743179)
- assaySetup: THP1 MAC1+ differentiation, flow cytometry, 4 days; at 10 µM (top of the series)
valueKind: MAC1+ percent, differentiation (%)
Your answer is read as %, so omit the unit and give the number.

Observe how each entry below is paired with its result.
O=C(Cc1ccc(Cl)cc1)NCCC(=O)N[C@@H]1CCCc2ccccc21: 13
O=C(CCNC(=O)c1ccc(Cl)cc1)NC1CCCCC1: 3
CC(C)(C)OC(=O)NCCC(=O)N[C@H]1CCCc2ccccc21: 2

Summary for this molecule, O=C(CNC(=O)c1ccc(Cl)c(Cl)c1)N[C@@H]1CCCc2ccccc21 : MAC1+ percent, differentiation is 6

Summary for this molecule, O=C(CCCNC(=O)c1ccc(OC(F)(F)F)cc1)N[C@@H]1CCCc2ccccc21 : MAC1+ percent, differentiation is 3

Summary for this molecule, O=C(CCCNC(=O)c1ccc(Cl)cc1)N[C@@H]1CCCc2ccccc21 : MAC1+ percent, differentiation is 5

Summary for this molecule, CC(c1ccccc1)N(C)C(=O)CCNC(=O)c1ccc(Cl)cc1 (centres undefined) : MAC1+ percent, differentiation is 7

Summary for this molecule, CC(C)(C)OC(=O)NCCC(=O)N[C@@H]1CCCc2ccccc21 : MAC1+ percent, differentiation is 2

Summary for this molecule, O=C(CCNC(=O)c1ccc(F)cc1)N[C@@H]1CCCc2ccccc21 : MAC1+ percent, differentiation is 46

====

Below: a set of entries, each annotated with reported MAC1+ percent, differentiation.
- procedureSummary: myeloid differentiation promoters in THP1 cells, SAR follow-up, cell-based, MAC1 flow cytometry, set 1 (AID 743179)
- assaySetup: THP1 MAC1+ differentiation, flow cytometry, 4 days; at 10 µM (top of the series)
Your answer is read as %, so omit the unit and give the number.

Observe how each entry below is paired with its result.
O=C(CNC(=O)c1ccc(C(F)(F)F)cc1)N[C@@H]1CCCc2ccccc21: 3
O=C(CNC(=O)c1ccc(OC(F)(F)F)cc1)N[C@@H]1CCCc2ccccc21: 3
O=C(CNC(=O)c1ccc(Cl)cc1)N[C@@H]1CCCc2ccccc21: 4
O=C(CCCNC(=O)c1ccc(Cl)c(Cl)c1)N[C@@H]1CCCc2ccccc21: 3
Cc1ccc(C)c(OCCn2cc(C(=O)O)c3ccccc32)c1: 2
C[C@@H](NC(=O)CCNC(=O)c1ccc(Cl)cc1)c1ccccc1: 5

Summary for this compound, Cc1cccc(C(=O)NCCC(=O)NC2CCCc3ccccc32)c1 (stereo not drawn) : MAC1+ percent, differentiation is 4

Summary for this compound, O=C(O)c1ccccc1OCc1ccccc1Br : MAC1+ percent, differentiation is 4

Summary for this compound, NCCC(=O)N[C@@H]1CCCc2ccccc21 : MAC1+ percent, differentiation is 1

Summary for this compound, COc1ccccc1C(C)NC(=O)CCNC(=O)c1ccc(Cl)cc1 (stereo not drawn) : MAC1+ percent, differentiation is -1

Summary for this compound, Cc1ccc(C(=O)NCCC(=O)N[C@@H]2CCCc3ccccc32)cc1 : MAC1+ percent, differentiation is 97

Summary for this compound, O=C(CCNC(=O)c1ccc(Cl)c(Cl)c1)N[C@@H]1CCCc2ccccc21 : MAC1+ percent, differentiation is 109

====

- procedureSummary: myeloid differentiation promoters in THP1 cells, SAR follow-up, cell-based, MAC1 flow cytometry, set 1 (AID 743179)
- assaySetup: THP1 MAC1+ differentiation, flow cytometry, 4 days; at 10 µM (top of the series)
valueKind: MAC1+ percent, differentiation (%)
Your answer is read as %, so omit the unit and give the number.

Observe how each entry below is paired with its result.
O=C(NC1CCc2ccccc21)C1CCCN(C(=O)c2ccc(Cl)cc2)C1 (stereo unspecified): 4
O=C(NC1CCOc2ccccc21)C1CCCN(C(=O)c2ccc(Cl)cc2)C1 (stereo unspecified): 5
O=C(CCNC(=O)c1ccccc1)N[C@@H]1CCCc2ccccc21: 2
O=C(CCCNC(=O)c1ccc(C(F)(F)F)cc1)N[C@@H]1CCCc2ccccc21: 2
N#Cc1ccc(C(=O)NCCC(=O)N[C@@H]2CCCc3ccccc32)cc1: 17

Summary for this compound, CC(NC(=O)CCNC(=O)c1ccc(Cl)cc1)c1ccc2c(c1)OCO2 (stereo unspecified) : MAC1+ percent, differentiation is 5
